Quick record of pIC50 values for EGFR (Homo sapiens (Human)).
pIC50: −log10 of the molar value.

>>> result("C#Cc1c(F)ccc(Nc2ncnc3cc(OC)cc(O[C@H]4CCN(C)CC4(F)F)c23)c1F")
"> 8.00"

Query compound follows.
Kindly state the measured pIC50 obtained for `C#Cc1cccc(Nc2ncnc3cc(OC)cc(O[C@@H]4CCN(C)CC4(F)F)c23)c1F` with EGFR (Homo sapiens (Human)). > 8.00
